Reported % Internalization relative to Control I (T47D cells, imaging) values for a set of binders
Biological target: T1, human PRLR on cells (endogenous on T47D, T47D#11, MCF7); introduced in HEK293/hPRLR/STAT5-Luc, 293/hPRLR, … (human, UniProt P16471 25-622)
T1 sequence: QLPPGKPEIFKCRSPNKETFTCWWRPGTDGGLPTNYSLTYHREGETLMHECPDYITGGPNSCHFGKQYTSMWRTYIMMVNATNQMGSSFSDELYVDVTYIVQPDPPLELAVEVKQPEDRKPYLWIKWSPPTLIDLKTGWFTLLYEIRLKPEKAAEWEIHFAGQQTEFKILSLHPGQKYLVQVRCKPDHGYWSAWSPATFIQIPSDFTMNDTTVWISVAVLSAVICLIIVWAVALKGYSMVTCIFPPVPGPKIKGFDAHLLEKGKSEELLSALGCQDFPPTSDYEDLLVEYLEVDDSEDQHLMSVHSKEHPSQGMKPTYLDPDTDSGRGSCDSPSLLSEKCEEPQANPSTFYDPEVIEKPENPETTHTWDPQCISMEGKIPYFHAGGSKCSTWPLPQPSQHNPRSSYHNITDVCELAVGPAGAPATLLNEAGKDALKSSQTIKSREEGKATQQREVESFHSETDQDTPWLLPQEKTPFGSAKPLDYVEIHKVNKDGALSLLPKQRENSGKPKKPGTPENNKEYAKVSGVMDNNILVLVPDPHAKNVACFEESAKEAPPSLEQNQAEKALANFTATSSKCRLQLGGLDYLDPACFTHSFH
Test: cell-based or functional assay
Remember to quote the unit after the number.

Some entries whose results are on file:
INSERT INTO measurements (binder, result) VALUES
  ('H1H6795P (antibody, human IgG1, V domains shown, human IgG1 Fc (H1H)) VH: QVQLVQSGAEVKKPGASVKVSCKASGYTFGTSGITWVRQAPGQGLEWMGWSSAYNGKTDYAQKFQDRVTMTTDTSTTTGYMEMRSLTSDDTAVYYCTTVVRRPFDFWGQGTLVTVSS VL: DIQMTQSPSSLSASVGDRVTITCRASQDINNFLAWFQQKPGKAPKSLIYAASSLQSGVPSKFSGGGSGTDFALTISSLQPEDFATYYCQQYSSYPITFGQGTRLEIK', '151%'),
  ('H1H6801P (antibody, human IgG1, V domains shown, human IgG1 Fc (H1H)) VH: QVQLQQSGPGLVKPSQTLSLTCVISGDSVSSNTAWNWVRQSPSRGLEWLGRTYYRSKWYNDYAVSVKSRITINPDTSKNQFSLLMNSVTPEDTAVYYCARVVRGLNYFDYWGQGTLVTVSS VL: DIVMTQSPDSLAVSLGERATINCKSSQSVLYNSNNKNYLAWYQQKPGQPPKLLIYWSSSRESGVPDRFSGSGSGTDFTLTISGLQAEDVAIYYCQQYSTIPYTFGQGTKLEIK', '149%');

INPUT: What does the record list as % Internalization relative to Control I (T47D cells, imaging) for H1H6781P (antibody, human IgG1, V domains shown, human IgG1 Fc (H1H)) VH: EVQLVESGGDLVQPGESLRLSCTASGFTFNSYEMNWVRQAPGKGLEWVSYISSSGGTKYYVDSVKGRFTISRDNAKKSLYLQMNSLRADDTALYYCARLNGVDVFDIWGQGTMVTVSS VL: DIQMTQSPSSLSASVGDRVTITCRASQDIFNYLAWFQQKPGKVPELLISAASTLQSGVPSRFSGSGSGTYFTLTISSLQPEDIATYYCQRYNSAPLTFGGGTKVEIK ?
OUTPUT: 165%

INPUT: What does the record list as % Internalization relative to Control I (T47D cells, imaging) for H1H6804P (antibody, human IgG1, V domains shown, human IgG1 Fc (H1H)) VH: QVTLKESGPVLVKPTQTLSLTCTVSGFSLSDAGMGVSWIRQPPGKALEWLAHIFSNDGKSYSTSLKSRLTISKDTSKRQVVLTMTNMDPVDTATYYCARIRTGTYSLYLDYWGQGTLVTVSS VL: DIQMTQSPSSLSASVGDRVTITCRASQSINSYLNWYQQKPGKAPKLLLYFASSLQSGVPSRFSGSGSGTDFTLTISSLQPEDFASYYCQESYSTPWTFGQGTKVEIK ?
OUTPUT: 139%

INPUT: What does the record list as % Internalization relative to Control I (T47D cells, imaging) for H1H6792P (antibody, human IgG1, V domains shown, human IgG1 Fc (H1H)) VH: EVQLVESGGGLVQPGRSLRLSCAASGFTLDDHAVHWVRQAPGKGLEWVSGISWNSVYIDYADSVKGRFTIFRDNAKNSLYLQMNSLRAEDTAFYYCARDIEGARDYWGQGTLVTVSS VL: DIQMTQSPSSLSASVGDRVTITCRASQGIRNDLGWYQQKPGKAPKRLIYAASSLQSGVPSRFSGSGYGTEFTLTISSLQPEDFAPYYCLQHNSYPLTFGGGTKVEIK ?
OUTPUT: 156%

INPUT: What does the record list as % Internalization relative to Control I (T47D cells, imaging) for H1H6785P (antibody, human IgG1, V domains shown, human IgG1 Fc (H1H)) VH: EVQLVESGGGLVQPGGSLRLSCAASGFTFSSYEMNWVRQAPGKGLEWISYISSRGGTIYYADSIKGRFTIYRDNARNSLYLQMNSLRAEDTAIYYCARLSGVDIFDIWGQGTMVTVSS VL: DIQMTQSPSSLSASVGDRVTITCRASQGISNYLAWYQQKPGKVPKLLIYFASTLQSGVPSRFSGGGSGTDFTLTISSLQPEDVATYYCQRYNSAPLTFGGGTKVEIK ?
OUTPUT: 169%
